# Test system: Rattus norvegicus
# protocolNotes: Cocaine discrimination in ip dosed CD Albino rat
# Assay type: functional
Criterion: ED50 strictly less than 3 mg/kg. Met: class 1. Not met: class 0.

{"compound": "COC(=O)[C@H]1C2CCC(C[C@@H]1c1ccc(Cl)cc1)N2C (stereo partly drawn)", "studySystem": "Rattus norvegicus", "labelClass": "class 0"}
{"compound": "COC(=O)[C@@H]1C2CC[C@H](C[C@@H]1c1ccc(C)cc1)N2C", "studySystem": "Rattus norvegicus", "labelClass": "class 1"}
{"compound": "COC(=O)[C@H]1[C@@H](OC(=O)c2ccccc2)C[C@@H]2CC[C@H]1N2C [COCAINE]", "studySystem": "Rattus norvegicus", "labelClass": "class 1"}
{"compound": "COC(=O)[C@@H]1C2CCC(C[C@H]1c1ccc(Cl)cc1)N2C (stereo partly drawn)", "studySystem": "Rattus norvegicus", "labelClass": "class 1"}
{"compound": "COC(=O)[C@@H]1C2CCC(C[C@H]1c1ccc(F)cc1)N2C (stereo partly drawn)", "studySystem": "Rattus norvegicus", "labelClass": "class 0"}
{"compound": "COC(=O)[C@H]1[C@@H](c2ccc(F)cc2)C[C@H]2CC[C@H]1N2C", "studySystem": "Rattus norvegicus", "labelClass": "class 1"}
{"compound": "COC(=O)[C@H]1C2CCC(C[C@@H]1c1ccc(I)cc1)N2C (stereo partly drawn)", "studySystem": "Rattus norvegicus", "labelClass": "class 0"}
{"compound": "COC(=O)[C@H]1C2CCC(C[C@@H]1c1ccc(C)cc1)N2C (stereo partly drawn)", "studySystem": "Rattus norvegicus", "labelClass": "class 0"}
{"compound": "COC(=O)[C@@H]1C2CCC(C[C@H]1c1ccc(C)cc1)N2C (stereo partly drawn)", "studySystem": "Rattus norvegicus", "labelClass": "class 0"}
{"compound": "COC(=O)[C@@H]1C2CC[C@H](C[C@@H]1c1ccc(I)cc1)N2C", "studySystem": "Rattus norvegicus", "labelClass": "class 1"}
{"compound": "COC(=O)[C@@H]1C2CCC(C[C@H]1c1ccccc1)N2C (stereo partly drawn)", "studySystem": "Rattus norvegicus", "labelClass": "class 0"}
{"compound": "COC(=O)C1C2CC[C@H](C[C@@H]1c1ccc(Cl)cc1)N2C (stereo partly drawn)", "studySystem": "Rattus norvegicus", "labelClass": "class 1"}

----------
# Test system: Mus musculus
# protocolNotes: Locomotor activity in CD1 mouse assessed as stimulation at 10 mg/kg, ip after 2 hrs relative to control
# Assay type: functional
# setupConditions: route intraperitoneal
# Activity values compiled below

{"molecule": "COC(=O)[C@H]1[C@@H](OC(=O)c2ccccc2)C[C@@H]2CC[C@H]1N2C", "Activity": "24%"}
{"molecule": "COC(=O)[C@@H]1C2CCC(C[C@H]1c1ccccc1)N2C (some centres not stated)", "Activity": "6%"}
{"molecule": "COC(=O)[C@H]1C2CCC(C[C@@H]1c1ccc(C)cc1)N2C (some centres not stated)", "Activity": "-11%"}
{"molecule": "COC(=O)[C@@H]1C2CC[C@H](C[C@@H]1c1ccccc1)N2C", "Activity": "1080%"}
{"molecule": "COC(=O)[C@H]1[C@H]2CCC(C[C@H]1c1ccc(C)cc1)N2C", "Activity": "96%"}
{"molecule": "COC(=O)[C@H]1C2CCC(C[C@@H]1c1ccc(F)cc1)N2C (some centres not stated)", "Activity": "107%"}
{"molecule": "COC(=O)[C@H]1[C@@H](c2ccc(F)cc2)C[C@H]2CC[C@H]1N2C", "Activity": "220%"}
